Target: IKBKE (human) (UniProt Q14164)
Sequence (Q14164 whole entry, looked up): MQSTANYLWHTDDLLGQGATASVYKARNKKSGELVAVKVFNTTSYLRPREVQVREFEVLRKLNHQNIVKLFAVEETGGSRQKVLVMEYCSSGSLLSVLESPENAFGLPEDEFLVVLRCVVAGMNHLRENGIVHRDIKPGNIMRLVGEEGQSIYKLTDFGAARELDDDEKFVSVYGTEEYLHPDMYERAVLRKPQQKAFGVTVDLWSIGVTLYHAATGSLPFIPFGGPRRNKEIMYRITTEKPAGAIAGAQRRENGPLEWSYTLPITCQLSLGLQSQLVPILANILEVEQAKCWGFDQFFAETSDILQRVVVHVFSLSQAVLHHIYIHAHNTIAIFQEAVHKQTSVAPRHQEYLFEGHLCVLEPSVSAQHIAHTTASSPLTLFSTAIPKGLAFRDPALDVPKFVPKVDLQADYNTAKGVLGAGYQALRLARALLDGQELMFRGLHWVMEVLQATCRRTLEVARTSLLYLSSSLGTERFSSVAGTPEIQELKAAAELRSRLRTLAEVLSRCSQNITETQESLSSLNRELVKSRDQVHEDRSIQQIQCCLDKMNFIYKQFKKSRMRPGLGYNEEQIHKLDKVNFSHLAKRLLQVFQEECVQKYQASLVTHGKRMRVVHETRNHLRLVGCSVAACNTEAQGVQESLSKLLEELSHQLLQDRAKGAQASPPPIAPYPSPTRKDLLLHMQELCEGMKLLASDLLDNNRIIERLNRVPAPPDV
Assay: radiometric filter-binding kinase assay
Conditions: compound 100.0 µM; ATP 50 µM
RECORDED_ENDPOINT: inhibition (%)

given_smiles=O=C(c1cccc(-c2cc3c(=O)[nH]cnc3s2)c1)N1CCOCC1 target_under_test="IKBKE (human) (UniProt Q14164)" reading_unit=% data_value=36
given_smiles=O=c1c(NC(=S)NCc2ccccc2)cnc2[nH]ccn12 target_under_test="IKBKE (human) (UniProt Q14164)" reading_unit=% data_value=0
given_smiles=COc1ccc(NC(=S)Nc2cnc3[nH]cnn3c2=O)cn1 target_under_test="IKBKE (human) (UniProt Q14164)" reading_unit=% data_value=0
given_smiles=O=C(Nc1cnc2[nH]ccn2c1=O)c1ccccc1 target_under_test="IKBKE (human) (UniProt Q14164)" reading_unit=% data_value=3
given_smiles=Nc1cnc2c(-c3c(F)cccc3F)cccn2c1=O target_under_test="IKBKE (human) (UniProt Q14164)" reading_unit=% data_value=13
given_smiles=O=C(Nc1cnc2[nH]cnn2c1=O)c1ccccc1 target_under_test="IKBKE (human) (UniProt Q14164)" reading_unit=% data_value=0
given_smiles=Nc1nc2cnc(-c3ccccc3)cn2n1 target_under_test="IKBKE (human) (UniProt Q14164)" reading_unit=% data_value=39

###

Molecular target: MKNK1 (human)
Assay: radiometric filter-binding kinase assay
Conditions: compound 100.0 µM; ATP 50 µM
RECORDED_ENDPOINT: inhibition (%)

molecule=CC(C)(C)Nc1c(COCc2ccccc2)nc2[nH]cnn12 recorded_endpoint=inhibition reading_unit=% data_value=0
molecule="CC1CN(c2nc3ccccn3c(=O)c2N)CC(C)O1 (stereo not drawn)" recorded_endpoint=inhibition reading_unit=% data_value=0
molecule=O=C(Nc1cnc2[nH]ccn2c1=O)c1ccccc1 recorded_endpoint=inhibition reading_unit=% data_value=0

###

In this section, each of the molecules is paired with its reported inhibition.
Target: RPS6KA5 KD1 KD2 (human)
Test: radiometric filter-binding kinase assay
Conditions: compound 100.0 µM; ATP 20 µM
RECORDED_ENDPOINT: inhibition (%)

given_smiles=COc1ccc(-c2cc3c(=O)[nH]cnc3s2)cc1OC data_value=22
given_smiles=O=c1cc(-c2ccccc2F)nc2[nH]ccn12 data_value=21
given_smiles=CC(C)(C)Nc1c(COCc2ccccc2)nc2[nH]cnn12 data_value=0
given_smiles=O=C(Nc1cnc2[nH]ccn2c1=O)c1ccccc1 data_value=4
given_smiles=CC(C)(C)Nc1c(C2CC2)nc2[nH]cnn12 data_value=0

###

Molecular target: CLK2 (human) (UniProt P49760)
Sequence (P49760 whole entry, looked up): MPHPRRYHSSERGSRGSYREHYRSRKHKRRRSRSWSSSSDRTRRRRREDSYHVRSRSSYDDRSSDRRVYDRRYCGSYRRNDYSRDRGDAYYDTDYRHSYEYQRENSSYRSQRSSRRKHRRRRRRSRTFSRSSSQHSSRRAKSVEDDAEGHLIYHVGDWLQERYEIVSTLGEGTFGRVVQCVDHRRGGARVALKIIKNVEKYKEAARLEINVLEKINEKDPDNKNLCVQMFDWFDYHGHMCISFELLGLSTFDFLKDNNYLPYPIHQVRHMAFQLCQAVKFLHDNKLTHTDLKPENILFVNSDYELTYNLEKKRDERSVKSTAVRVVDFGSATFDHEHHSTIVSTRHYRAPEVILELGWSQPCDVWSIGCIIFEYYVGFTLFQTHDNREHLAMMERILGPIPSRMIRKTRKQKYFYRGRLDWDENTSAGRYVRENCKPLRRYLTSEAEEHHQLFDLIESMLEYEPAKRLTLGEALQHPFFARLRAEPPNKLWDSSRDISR
Assay: radiometric filter-binding kinase assay
Details: compound 100.0 µM; ATP 5 µM
In this section, each of the compounds is paired with its reported inhibition.
RECORDED_ENDPOINT: inhibition

compound="CC1CN(c2nc3ccccn3c(=O)c2N)CC(C)O1 (stereo not drawn)" data_value=57%
compound=Cc1cccc(C)c1-c1cn2nc(N)nc2cn1 data_value=33%
compound=CC(C)(C)Nc1c(C2CC2)nc2[nH]cnn12 data_value=34%
compound=Nc1cnc2c(-c3c(F)cccc3F)cccn2c1=O data_value=91%
compound=O=C(Nc1cnc2[nH]ccn2c1=O)c1ccccc1 data_value=0%
compound=Nc1nc2cnc(-c3ccccc3)cn2n1 data_value=74%
compound=O=C(c1cccc(-c2cc3c(=O)[nH]cnc3s2)c1)N1CCOCC1 data_value=46%
compound=COc1ccc(-c2cc3c(=O)[nH]cnc3s2)cc1OC data_value=50%
